Protocol Notes: Displacement of [3H-20]-phorbol-12-13-dibutyrate from protein kinase C (alpha, beta, gamma) of mouse brain
Format: tissue-based
Observable: Ki (µM)

Chemical Smiles: CCCCCCCCCCCCCC(=O)O[C@@H]1CC(=O)O[C@H]1CO
Experimental Value: 2.5

[1] CCCCCCCCCCCCC/C=C1/C(=O)O[C@@H](CO)[C@@H]1OC(C)=O
[2] CCCCCCCCCCCCCC(=O)O[C@@H]1CCC(=O)O[C@H]1CO
[3] CCCCCCCCCCCCC/C=C1\C(=O)O[C@@H](CO)[C@@H]1OC(C)=O
Descending sort on Ki required. Your task in answering is to list the labels in the requested order. 2, 1, 3
